- Test system: mgc4171
- protocol-details: Real-time quantitative PCR of PLsis marker gene expression
- Type: cell-based, human
- condition-summary: HepG2 cells, 24 hr exposure, relative value, control group = 1.0, GAPDH internal standard, n=3
- Experimental: Using RNeasy Mini Kit (QIAGEN), total RNA was purified from the cells, and cDNA was synthesized in a 100 μL system using TaqMan Reverse Transcription Reagents (PE Applied Biosystems). As the primer for glyceraldehyde-3-phosphoric acid dehydrogenase (GAPDH) and VIC labeled probe, those attached to TaqMan GAPDH Control Reagents (PE Applied Biosystems) were used. […] For each test compound, the expression variation rate of 12 genes each relative to the control group was determined.
readout-kind: expression variation rate mgc4171

molecule=C[C@H]1COc2c(N3CCN(C)CC3)c(F)cc3c(=O)c(C(=O)O)cn1c23 quantitative_result=0.79
molecule=CC[C@H]1OC(=O)[C@H](C)[C@@H](O[C@H]2C[C@@](C)(OC)[C@@H](O)[C@H](C)O2)[C@H](C)[C@@H](O[C@@H]2O[C@H](C)C[C@H](N(C)C)[C@H]2O)[C@](C)(O)C[C@@H](C)C(=O)[C@H](C)[C@@H](O)[C@]1(C)O quantitative_result=0.86
molecule="CC1COc2c(N3CCN(C)CC3)c(F)cc3c(=O)c(C(=O)O)cn1c23 (stereo not drawn)" quantitative_result=0.77
molecule="C1CCC(C(CC2CCCCN2)C2CCCCC2)CC1 (stereo not drawn)" quantitative_result=1.93
molecule=CN(C)CCCN1c2ccccc2Sc2ccc(Cl)cc21 quantitative_result=1.74
molecule="CC(C)N(CCC(C(N)=O)(c1ccccc1)c1ccccn1)C(C)C (stereo not drawn) [disopyramide]" quantitative_result=1.21
molecule=CN1CCN(C2=Nc3cc(Cl)ccc3Nc3ccccc32)CC1 quantitative_result=1.88
molecule="CNCCC(Oc1ccc(C(F)(F)F)cc1)c1ccccc1 (stereo not drawn)" quantitative_result=1.34

(1) O=C(NCC1CCCCN1)c1cc(OCC(F)(F)F)ccc1OCC(F)(F)F (stereo not drawn) [flecainide]
(2) CC(C)NCC(O)c1ccc(NS(C)(=O)=O)cc1 (stereo not drawn)
Input line: Form field 'greater expression variation rate mgc4171' accepts 1 or 2 ; which applies? Your answer should be the label of the entry you select.
Output line: 1
(1: 1.57, 2: 0.72)

###

- System: asah1
- protocol-details: Real-time quantitative PCR of PLsis marker gene expression
- Type: cell-based, human
- condition-summary: HepG2 cells, 24 hr exposure, relative value, control group = 1.0, GAPDH internal standard, n=3
readout-kind: expression variation rate asah1

(A) CNS(=O)(=O)Cc1ccc2[nH]cc(CCN(C)C)c2c1
(B) N=C(N)c1ccc(OCCCCCOc2ccc(C(=N)N)cc2)cc1
Input line: Given A and B , report the one with the higher recorded expression variation rate asah1. Kindly give the label for the entry you pick.
Output line: A
(A: 1.35, B: 0.93)

###

- Test system: slc2a3
- protocol-details: Real-time quantitative PCR of PLsis marker gene expression
- Type: cell-based, human
- condition-summary: HepG2 cells, 24 hr exposure, relative value, control group = 1.0, GAPDH internal standard, n=3
readout-kind: expression variation rate slc2a3

(a) CNCCC(Oc1ccc(C(F)(F)F)cc1)c1ccccc1 (stereo not shown)
(b) O=C(NCC1CCCCN1)c1cc(OCC(F)(F)F)ccc1OCC(F)(F)F (stereo not shown) [flecainide]
(c) CNS(=O)(=O)Cc1ccc2[nH]cc(CCN(C)C)c2c1
(d) CC/C(=C(\c1ccccc1)c1ccc(OCCN(C)C)cc1)c1ccccc1
Input line: # rank by expression variation rate slc2a3, ascending (min first) Output the labels ranked as instructed.
Output line: a, d, b, c
(a: 0.09, d: 0.24, b: 0.46, c: 0.99)

(a) N=C(N)c1ccc(OCCCCCOc2ccc(C(=N)N)cc2)cc1
(b) CCN(CC)CCNC(=O)c1ccc(N)cc1 [procainamide]
(c) CCCCc1oc2ccccc2c1C(=O)c1cc(I)c(OCCN(CC)CC)c(I)c1
(d) CN1CCN(C2=Nc3cc(Cl)ccc3Nc3ccccc32)CC1
Input line: Kindly order the items shown according to expression variation rate slc2a3, from the highest value down. # list labels per requested ordering
Output line: b, a, c, d

(I) CN(C)CCCN1c2ccccc2Sc2ccc(Cl)cc21
(II) CC(C)NCC(O)c1ccc(NS(C)(=O)=O)cc1 (stereo not shown)
Input line: Between the entries labelled I and II , which has a larger expression variation rate slc2a3 value on record? In your reply, give the label of the chosen option.
Output line: II
